Experiment notes: Oral bioavailability in Sprague-Dawley rat at 1 mg/kg administered through cassette dosing
Format: ADME, organism-based
Test settings: in vivo
Observed property: bioavailability (%)
The reply should be a number in %, with the unit left off.

INSERT INTO results (query_smiles, observed_property, reading_unit, value_measured) VALUES
  ('O=C(C[C@]1(O)CC[C@H](Cc2ccc(F)cc2)CC1)Nc1ccc2[nH]c(=O)oc2c1', 'bioavailability', '%', 58),
  ('O=c1[nH]c2ccc(-c3cc(C[C@]4(O)CC[C@@H](Cc5ccccc5)CC4)no3)cc2o1', 'bioavailability', '%', 8.4),
  ('O[C@]1(Cc2cc(-c3cn[nH]c3)on2)CC[C@H](Cc2ccc(C(F)(F)F)cc2)CC1', 'bioavailability', '%', 67.5);

bioavailability lookup needed for O[C@]1(Cc2cc(-c3cn[nH]c3)on2)CC[C@H](Cc2ccc(F)c(F)c2)CC1 , thanks. 67.5

bioavailability lookup needed for O=C(C[C@]1(O)CC[C@@H](Cc2ccccc2)CC1)Nc1ccc2[nH]ncc2c1 , thanks. 23.7

###

Tested on: Glutamate receptor ionotropic, NMDA 2B (Mus musculus, UniProt P35438+Q01097)
Sequence (Q01097 whole entry, one chain of several): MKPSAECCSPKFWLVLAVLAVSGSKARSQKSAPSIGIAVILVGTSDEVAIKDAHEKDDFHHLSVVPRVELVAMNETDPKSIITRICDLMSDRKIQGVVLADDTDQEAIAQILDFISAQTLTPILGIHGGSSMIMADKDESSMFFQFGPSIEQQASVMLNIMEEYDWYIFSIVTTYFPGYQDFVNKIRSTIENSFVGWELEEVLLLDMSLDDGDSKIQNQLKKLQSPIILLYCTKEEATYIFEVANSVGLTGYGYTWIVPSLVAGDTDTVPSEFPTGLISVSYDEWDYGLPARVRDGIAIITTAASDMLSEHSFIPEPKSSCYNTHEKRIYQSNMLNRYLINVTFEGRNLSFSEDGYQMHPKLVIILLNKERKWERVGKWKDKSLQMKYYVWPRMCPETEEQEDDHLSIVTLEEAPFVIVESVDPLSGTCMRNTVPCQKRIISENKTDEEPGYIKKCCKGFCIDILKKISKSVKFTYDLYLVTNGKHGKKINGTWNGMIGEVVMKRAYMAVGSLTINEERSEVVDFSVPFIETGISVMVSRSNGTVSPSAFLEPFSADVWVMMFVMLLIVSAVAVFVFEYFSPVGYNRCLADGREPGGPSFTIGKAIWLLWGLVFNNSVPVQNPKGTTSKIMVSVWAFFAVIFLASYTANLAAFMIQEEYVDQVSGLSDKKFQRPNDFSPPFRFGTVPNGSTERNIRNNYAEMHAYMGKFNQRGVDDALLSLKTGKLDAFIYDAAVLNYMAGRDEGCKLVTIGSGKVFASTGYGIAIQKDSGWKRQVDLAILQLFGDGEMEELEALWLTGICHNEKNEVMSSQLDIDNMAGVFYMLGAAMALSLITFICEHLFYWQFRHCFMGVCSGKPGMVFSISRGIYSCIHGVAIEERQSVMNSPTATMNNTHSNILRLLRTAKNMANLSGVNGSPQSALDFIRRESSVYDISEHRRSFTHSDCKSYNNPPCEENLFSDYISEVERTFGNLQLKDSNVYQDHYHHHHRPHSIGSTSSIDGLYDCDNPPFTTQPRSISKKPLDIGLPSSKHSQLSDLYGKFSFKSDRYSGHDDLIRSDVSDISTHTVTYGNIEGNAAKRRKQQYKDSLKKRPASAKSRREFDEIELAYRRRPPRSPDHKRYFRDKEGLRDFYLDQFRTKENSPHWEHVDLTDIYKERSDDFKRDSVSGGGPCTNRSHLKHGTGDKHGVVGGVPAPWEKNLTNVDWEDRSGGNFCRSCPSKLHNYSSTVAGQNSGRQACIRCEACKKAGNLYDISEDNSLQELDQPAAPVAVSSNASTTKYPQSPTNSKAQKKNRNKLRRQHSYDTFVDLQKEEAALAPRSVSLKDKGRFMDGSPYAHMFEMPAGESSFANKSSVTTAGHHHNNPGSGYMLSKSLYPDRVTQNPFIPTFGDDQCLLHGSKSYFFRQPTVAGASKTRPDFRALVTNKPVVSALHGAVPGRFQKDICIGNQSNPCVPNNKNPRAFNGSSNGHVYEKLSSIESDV
Experiment notes: Antagonist activity at mouse NR2B expressed in Hek293 cells co-expressing mouse NR1 assessed as inhibition of glutamic acid/glycine-induced intracellular Ca2+ levels measured after 1 day post induction by Fluo-3/AM dye-based fluorescence assay
pIC50 values by entry
Scale note: pIC50 = -log10(concentration in M).

INSERT INTO results (query_smiles, value_measured) VALUES
  ('O=C(C[C@]1(O)CC[C@@H](Cc2ccc(Cl)cc2)CC1)Nc1ccc2[nH]c(=O)oc2c1', 8.50),
  ('O=C(C[C@]1(O)CC[C@@H](Cc2ccccc2)CC1)Nc1ccc2[nH]ncc2c1', 7.40),
  ('O=C1CCc2cc(NC(=O)C[C@]3(O)CC[C@@H](Cc4ccccc4)CC3)ccc2N1', 8.00),
  ('O[C@]1(Cc2cc(-c3cn[nH]c3)on2)CC[C@H](Cc2ccc(C(F)(F)F)cc2)CC1', 7.90),
  ('O=C1Cc2cc(NC(=O)C[C@]3(O)CC[C@@H](Cc4ccccc4)CC3)ccc2N1', 7.80);

pIC50 lookup needed for O=C(C[C@]1(O)CC[C@H](Cc2ccc(F)cc2)CC1)Nc1ccc2[nH]c(=O)oc2c1 , thanks. 7.80

pIC50 lookup needed for O=C(C[C@]1(O)CC[C@@H](Cc2ccccc2)CC1)Nc1ccc2[nH]c(=O)oc2c1 , thanks. 9.20

###

clearance values by entry
Experiment notes: Total clearance in Sprague-Dawley rat at 0.5 mg/kg, iv or 1 mg/kg, po administered through cassette dosing
Format: ADME, organism-based
Test settings: in vivo
The reply should be a number in mL/min/kg, with the unit left off.

clearance lookup needed for O=C(C[C@]1(O)CC[C@@H](Cc2ccccc2)CC1)Nc1ccc2[nH]c(=O)oc2c1 , thanks. 34.1

clearance lookup needed for COc1ccc(C[C@H]2CC[C@](O)(CC(=O)Nc3ccc4[nH]c(=O)oc4c3)CC2)cc1 , thanks. 45.9

clearance lookup needed for O=C(C[C@]1(O)CC[C@@H](Cc2ccc(F)cc2)CC1)Nc1ccc2[nH]c(=O)oc2c1 , thanks. 36.8

clearance lookup needed for O=c1[nH]c2ccc(-c3cc(C[C@]4(O)CC[C@@H](Cc5ccccc5)CC4)no3)cc2o1 , thanks. 12.1
